These measurements were taken from paper PMC5540273.

Tested on: STK16
Conditions: concentration: 1 μM, replicates: in singlicate; n = 1;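 also: KINOMEscan kinase panel screen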
Decide by %Inh: equal to or exceeding 10% means rule met, less means rule not met.

Solved entries:
INSERT INTO measurements (molecule, class_assignment) VALUES
  ('COc1ccc(Nc2ncc(C#N)c(Nc3ccccc3C(N)=O)n2)cc1N1CCN(C)CC1.Cl', 'rule met'),
  ('c1ccc(-c2n[nH]cc2-c2ccnc3ccccc23)nc1', 'rule met'),
  ('Cl.Nc1ncnc2occ(-c3ccc(NC(=O)Nc4cc(C(F)(F)F)ccc4F)cc3)c12', 'rule not met'),
  ('Cc1nnc(-c2ccc(C)c(-c3ccc(C(=O)Nc4ccc(NS(C)(=O)=O)cc4)cc3)c2)o1', 'rule not met'),
  ('O=c1cc(N2CCOCC2)nc2n(Cc3cccc(F)c3)ccn12', 'rule met'),
  ('c1ccc(-c2cc(-c3c[nH]nc3-c3ccccn3)ccn2)cc1', 'rule not met'),
  ('Cc1nnc(-c2ccc3occ(-c4ccc(C(C)O)cc4)c3c2)o1 (stereo not drawn)', 'rule met');

QUERY: Reported %Inh at or above 10%? Cc1cccc(Cn2ccn3c(=O)cc(N4CCOCC4)nc23)c1
RESULT: rule met

====

Tested on: NEK3
Details: concentration: 1 μM, replicates: in singlicate; n = 1
Reported %Inh values are given for each entry in this list.
API: value field is a number in %; no unit string.

Consider the following illustrative entries.
INSERT INTO measurements (compound, recorded_endpoint, quantitative_readout) VALUES
  ('CCCCCc1nc2c(N)ncnc2n1CCCCC [SKF-97255]', '%Inh', 28),
  ('O=C1NC(=O)C(N2CCc3ccccc32)=C1c1cccc(Cl)c1 [SB-408010]', '%Inh', 14),
  ('O=C(Nc1n[nH]c2cc(-c3cccc(F)c3)ccc12)C1CC1 [SB-735464]', '%Inh', 23),
  ('CC(C)Oc1ccc2c(-c3ccnc(Nc4ccc(N5CCN(C)CC5)cc4)n3)cnn2n1 [GW696155]', '%Inh', 98.5),
  ('CN1c2ccc(NCc3ccc(F)cc3)cc2-c2c(cnn2C)S1(=O)=O', '%Inh', 33),
  ('CCc1nc(-c2cccc(C)c2)c(-c2ccnc(NCc3ccccc3)c2)s1', '%Inh', 24),
  ('COc1cc2c(cc1OCCN1CCN(C)CC1)ncc1c3ccc(C#N)cc3[nH]c21', '%Inh', 33),
  ('COc1ccc(Nc2ncc(C#N)c(Nc3ccccc3C(N)=O)n2)cc1N1CCN(C)CC1.Cl [GSK1558669]', '%Inh', 93.5);

Attention now shifts to the item below.
QUERY: Name the reported %Inh value associated with the compound Cc1cccc(Cn2ccn3c(=O)cc(N4CCOCC4)nc23)c1 [GSK2297542]
RESULT: 15

====

Reported %Inh values are given for each entry in this list.
Tested on: MAP3K4
Conditions: concentration: 1 μM, replicates: in singlicate; n = 1
API: value field is a number in %; no unit string.

INSERT INTO results (compound, recorded_endpoint, unit_string, quantitative_readout) VALUES
  ('CN1c2ccc(NCc3ccc(F)cc3)cc2-c2c(cnn2C)S1(=O)=O', '%Inh', '%', 11);

QUERY: Name the reported %Inh value associated with the compound O=C(NOCC1CC1)c1ccc(F)c(F)c1Nc1ccc(I)cc1Cl
RESULT: 0

QUERY: Name the reported %Inh value associated with the compound N#Cc1ccc(-c2cc(-c3c[nH]nc3-c3ccccn3)ccn2)cc1 [GW693028]
RESULT: 24

QUERY: Name the reported %Inh value associated with the compound CSc1ccc(-c2cc3ncnc(SCC(=O)O)c3s2)cc1
RESULT: 10

QUERY: Name the reported %Inh value associated with the compound NCC(NC(=O)c1cc(-c2cn[nH]c2)c(-c2ccnc3[nH]ccc23)s1)c1ccccc1.O=C(O)C(F)(F)F.O=C(O)C(F)(F)F (stereo not drawn) [GSK1325775]
RESULT: 20

QUERY: Name the reported %Inh value associated with the compound COc1cc2c(cc1OC[C@@H](O)CO)ncc1c3ccc(C#N)cc3[nH]c21
RESULT: 0

QUERY: Name the reported %Inh value associated with the compound COc1cc2c(cc1OCCN1CCN(C)CC1)ncc1c3ccc(C#N)cc3[nH]c21
RESULT: 0

QUERY: Name the reported %Inh value associated with the compound CC(C)(C)n1cnc2c(N)ncnc21 [SKF-97359]
RESULT: 0

QUERY: Name the reported %Inh value associated with the compound NS(=O)(=O)c1cccc(-c2ccc3ncc(N4CCOCC4)nc3c2)c1 [GSK1535721]
RESULT: 0

====

Reported %Inh values are given for each entry in this list.
Test system: MKK7
Details: concentration: 1 μM, replicates: in singlicate; n = 1
API: value field is a number in %; no unit string.

QUERY: Name the reported %Inh value associated with the compound COc1ccc(COc2cc(-n3cnc4ccccc43)sc2C(N)=O)cc1 [GSK1024304]
RESULT: 0

QUERY: Name the reported %Inh value associated with the compound NS(=O)(=O)c1cccc(-c2ccc3nccc(-c4cccc(S(N)(=O)=O)c4)c3c2)c1 [GW867253]
RESULT: 0

QUERY: Name the reported %Inh value associated with the compound CN1c2ccc(NCc3ccc(F)cc3)cc2-c2c(cnn2C)S1(=O)=O
RESULT: 0

QUERY: Name the reported %Inh value associated with the compound Cc1cccc(-c2nc(-c3ccc(S(C)(=O)=O)cc3)sc2-c2ccncc2)c1
RESULT: 20

QUERY: Name the reported %Inh value associated with the compound N#Cc1c(N2CCOCC2)sc(-c2ccn[nH]2)c1-c1ccc(Cl)cc1
RESULT: 20

QUERY: Name the reported %Inh value associated with the compound O=C1NC(=O)C(N2CCc3ccccc32)=C1c1cccc(Cl)c1 [SB-408010]
RESULT: 0

QUERY: Name the reported %Inh value associated with the compound CN(C1=C(c2ccccc2)C(=O)NC1=O)c1ccccc1 [SB-334860]
RESULT: 47

QUERY: Name the reported %Inh value associated with the compound [2H]C([2H])(c1cccc(C(F)(F)F)c1C)n1ccn2c(=O)nc(N3CCOCC3)cc12 [GSK2336394]
RESULT: 14

QUERY: Name the reported %Inh value associated with the compound O=c1cc(N2CCOCC2)nc2n(Cc3cccc(Cl)c3Cl)c(C3CC3)nn12 [GSK2358994]
RESULT: 0

====

Reported %Inh values are given for each entry in this list.
Test system: JAK1(JH2domain-pseudokinase)
Conditions: concentration: 1 μM, replicates: in singlicate; n = 1
API: value field is a number in %; no unit string.

Consider the following illustrative entries.
INSERT INTO results (compound, measured_on, unit_string, quantitative_readout) VALUES
  ('CC(=O)Nc1ccc(COc2ccc(Nc3ccnc4cc(-c5ccccn5)ccc34)cc2)cc1.Cl', 'JAK1(JH2domain-pseudokinase)', '%', 0),
  ('Fc1ccc(-c2ncn(CCCN3CCOCC3)c2-c2cccnc2)cc1', 'JAK1(JH2domain-pseudokinase)', '%', 38),
  ('CCc1nc(-c2cccc(C)c2)c(-c2ccnc(NCc3ccccc3)c2)s1', 'JAK1(JH2domain-pseudokinase)', '%', 31),
  ('O=C(Nc1n[nH]c2cc(-c3cccc(F)c3)ccc12)C1CC1', 'JAK1(JH2domain-pseudokinase)', '%', 23);

Attention now shifts to the item below.
QUERY: Name the reported %Inh value associated with the compound Cc1nnc(-c2ccc3occ(-c4ccc(C(C)O)cc4)c3c2)o1 (centres unmarked)
RESULT: 5

====

System: BUB1
Details: concentration: 1 μM, replicates: in singlicate; n = 1
Decide by %Inh: equal to or exceeding 20% means Yes, less means No.

Solved entries:
INSERT INTO assay_data (compound, class_assignment) VALUES
  ('N#Cc1ccc(-c2cc(-c3c[nH]nc3-c3ccccn3)ccn2)cc1 [GW693028]', 'Yes'),
  ('COc1ccc(CNC(=O)NC2CCN(c3ccnc(Nc4ccc(OC)cc4)n3)C2)cc1 (centres unmarked) [GSK1379727]', 'Yes'),
  ('Cl.Nc1ncnc2occ(-c3ccc(NC(=O)Nc4cc(C(F)(F)F)ccc4F)cc3)c12 [SB-707548]', 'No'),
  ('[2H]C([2H])(c1cccc(C(F)(F)F)c1C)n1ccn2c(=O)nc(N3CCOCC3)cc12 [GSK2336394]', 'Yes'),
  ('Cc1ccc(NC(=O)c2ccnc(N3CCN(C)CC3)c2)cc1-c1ccc(C(=O)NCC2CC2)cc1 [GW775604]', 'No');

QUERY: Reported %Inh at or above 20%? CN1c2ccc(NCc3ccc(F)cc3)cc2-c2c(cnn2C)S1(=O)=O
RESULT: No

QUERY: Reported %Inh at or above 20%? CN(C(=O)c1ccc(-c2cc(-c3c[nH]nc3-c3ccccn3)ccn2)cc1)C1CCOCC1 [GW810083]
RESULT: No

QUERY: Reported %Inh at or above 20%? N#Cc1c(N2CCOCC2)sc(-c2ccn[nH]2)c1-c1ccc(Cl)cc1
RESULT: No

QUERY: Reported %Inh at or above 20%? COCCNC(=O)c1ccc(-c2cc(C(=O)NC3CC3)cc(F)c2C)cc1 [GW868318]
RESULT: Yes

QUERY: Reported %Inh at or above 20%? CC(C)(C)n1cnc2c(N)ncnc21 [SKF-97359]
RESULT: Yes

QUERY: Reported %Inh at or above 20%? O=c1cc(N2CCOCC2)nc2n(Cc3cccc(F)c3)ccn12 [GSK2297430]
RESULT: No

QUERY: Reported %Inh at or above 20%? Nc1nccc(-c2c(-c3ccc(F)cc3)ncn2C2CCN(CC(F)(F)F)CC2)n1 [SB-236560]
RESULT: Yes

QUERY: Reported %Inh at or above 20%? O=c1cc(N2CCOCC2)nc2n(Cc3cccc(Cl)c3Cl)c(C3CC3)nn12 [GSK2358994]
RESULT: No

QUERY: Reported %Inh at or above 20%? NS(=O)(=O)c1cccc(-c2ccc3nccc(-c4cccc(S(N)(=O)=O)c4)c3c2)c1 [GW867253]
RESULT: No
